These measurements were taken from ChEMBL document CHEMBL5058577.

system: HEK-293T; test: Multiplex assay against HEK293T; type: toxicity, cell-based; conditions: human, 24 h, 10 µM, compound concentration 10 uM, replicate 1
measurement.name: Population Membrane Permeable-Phenotype (%)
Provide the reading as a plain figure in %.

• CCCCC1=NC2(CCCC2)C(=O)N1Cc1ccc(-c2ccccc2-c2nnn[nH]2)cc1 [IRBESARTAN] = 1
• O=C(NCCN1CCC(n2c(=O)[nH]c3cc(Cl)ccc32)CC1)c1ccc(F)cc1 [HALOPEMIDE] = 1
• CCCCCC(O)/C=C/[C@H]1C(=O)CC(O)C1C/C=C\CCCC(=O)O (stereo partly specified) = 0

Prompt: Look up Population Membrane Permeable-Phenotype (%) of CC(C)c1noc(N2CCC(COc3ccc(-c4ccc(S(C)(=O)=O)cc4)nc3)CC2)n1 [GSK-1292263] and report it.
Completion: 0

Prompt: Look up Population Membrane Permeable-Phenotype (%) of CC(=O)Nc1cccc2c1c(Sc1ccc(Cl)cc1)c(C)n2CC(=O)O [AZD1981] and report it.
Completion: 0

Prompt: Look up Population Membrane Permeable-Phenotype (%) of "Cc1cccc(NC(=O)CN2CCC(c3ccccn3)CC2)c1.Cl.Cl" and report it.
Completion: 0

Prompt: Look up Population Membrane Permeable-Phenotype (%) of "COc1ccccc1N1CCN(C[C@@H](C(=O)NC(C)(C)C)c2ccccc2)CC1.Cl.Cl" and report it.
Completion: 0

Prompt: Look up Population Membrane Permeable-Phenotype (%) of CCC(=O)N1CCN(c2ccc(-n3c(=O)ccc4cnc5ccc(-c6cnc7ccccc7c6)cc5c43)cc2C(F)(F)F)CC1 [TORIN1] and report it.
Completion: 0

Prompt: Look up Population Membrane Permeable-Phenotype (%) of "N#Cc1c(Oc2cccc(OS(=O)(=O)CCCC(F)(F)F)c2)cccc1C(F)(F)F" and report it.
Completion: 0

Prompt: Look up Population Membrane Permeable-Phenotype (%) of "COc1cccc2c1c(NS(=O)(=O)c1ccc(Cl)s1)nn2Cc1cccc(CNC(=O)C(C)(C)O)c1" and report it.
Completion: 0

Prompt: Look up Population Membrane Permeable-Phenotype (%) of CC(C)(C)c1cc(NC(=O)Nc2ccc(-c3cn4c(n3)sc3cc(OCCN5CCOCC5)ccc34)cc2)no1 [QUIZARTINIB] and report it.
Completion: 0

Prompt: Look up Population Membrane Permeable-Phenotype (%) of "N#Cc1cc(F)cc(-c2nc(-c3ccc(F)cn3)no2)c1" and report it.
Completion: 0

Prompt: Look up Population Membrane Permeable-Phenotype (%) of "Cc1onc(-c2ccccc2Cl)c1C(=O)N(C)c1ccc(Cl)cc1" and report it.
Completion: 1

Prompt: Look up Population Membrane Permeable-Phenotype (%) of Cl.NCCc1ccc(O)c(O)c1 [DOPAMINE HYDROCHLORIDE] and report it.
Completion: 0

Prompt: Look up Population Membrane Permeable-Phenotype (%) of "CCc1cc2cc(NS(=O)(=O)c3ccc(C#N)cc3)ccc2n(CC)c1=O" and report it.
Completion: 0

Prompt: Look up Population Membrane Permeable-Phenotype (%) of "O=C1[C@H](Cc2ccc(O)cc2)N2C(=O)CCN(C(=O)NCc3ccccc3)[C@H]2CN1Cc1cccc2ccccc12" and report it.
Completion: 0

###

test system: HEK-293T; experiment: Multiplex assay against HEK293T; assay type: toxicity, cell-based; conditions: human, 24 h, 1 µM, compound concentration 1 uM, replicate 1
The following compounds are shown together with reported Population Pyknosed Nuclei (%) values.
Provide the reading as a plain figure in %.

Study these solved cases before continuing.
- CCc1cc2cc(NS(=O)(=O)c3ccc(C#N)cc3)ccc2n(CC)c1=O: 11
- COc1cccc2c1c(NS(=O)(=O)c1ccc(Cl)s1)nn2Cc1cccc(CNC(=O)C(C)(C)O)c1: 11
- CCCCC1=NC2(CCCC2)C(=O)N1Cc1ccc(-c2ccccc2-c2nnn[nH]2)cc1: 10
- CC[C@@H](C)Nc1nc(C)nc2c(-c3ccc(OC)nc3C)c(C)nn12: 11

Prompt: Specify Population Pyknosed Nuclei (%) for "CC(C)c1noc(N2CCC(COc3ccc(-c4ccc(S(C)(=O)=O)cc4)nc3)CC2)n1" , system HEK-293T.
Completion: 12

###

test system: U2OS; experiment: Multiplex assay against U2OS; type: toxicity, cell-based; details: human, 24 h, 1 µM, compound concentration 1 uM, replicate 2
The following compounds are shown together with reported Population Tubulin-Different-Phenotype (%) values.
Hey, just the number and the unit after it is fine.

* Cc1cccc(NC(=O)CN2CCC(c3ccccn3)CC2)c1.Cl.Cl | 5%
* CN1CCN(c2cc(-c3ccccc3)nc(N)n2)CC1 | 9%
* CCCOc1ccc2[nH]cc(C3=CCNCC3)c2n1.Cl | 2%
* COc1ccccc1N1CCN(C[C@@H](C(=O)NC(C)(C)C)c2ccccc2)CC1.Cl.Cl | 2%
* CCCCC1=NC2(CCCC2)C(=O)N1Cc1ccc(-c2ccccc2-c2nnn[nH]2)cc1 [IRBESARTAN] | 4%
* O=C(CCCc1ccccc1)Nc1nc2ccccc2c(=O)s1 | 3%
* Cl.NCCc1ccc(O)c(O)c1 [DOPAMINE HYDROCHLORIDE] | 2%
* Cc1c(CC(=O)O)c2cccnc2n1Cc1ccc(S(C)(=O)=O)cc1C(F)(F)F [FEVIPIPRANT] | 10%

Prompt: Look up Population Tubulin-Different-Phenotype (%) of CCCCCC(O)/C=C/[C@H]1C(=O)CC(O)C1C/C=C\CCCC(=O)O (stereo not given in full) and report it.
Completion: 4%

Prompt: Look up Population Tubulin-Different-Phenotype (%) of O=C(NCCN1CCC(n2c(=O)[nH]c3cc(Cl)ccc32)CC1)c1ccc(F)cc1 [HALOPEMIDE] and report it.
Completion: 8%

###

tested on: U2OS; assay: Multiplex assay against U2OS; type: toxicity, cell-based; settings: human, 24 h, 1 µM, compound concentration 1 uM, replicate 2
measurement.name: Population Apoptotic (%)
Provide the reading as a plain figure in %.

Study these solved cases before continuing.
- NCCc1cn(S(=O)(=O)c2c(Cl)nc3sccn23)c2ccccc12.O=C(O)C(=O)O: 78
- Cc1sc2c(c1C)C(c1ccc(Cl)cc1)=N[C@@H](CC(=O)NCCCCCCCCNC(=O)COc1cccc3c1C(=O)N(C1CCC(=O)NC1=O)C3=O)c1nnc(C)n1-2 (some centres undefined): 92
- Cc1cccc(NC(=O)CN2CCC(c3ccccn3)CC2)c1.Cl.Cl: 73
- CN(C)C(=O)Cn1cc(-c2ccc(-c3cncc4ccccc34)cc2)cn1: 90

Prompt: Look up Population Apoptotic (%) of "C[C@H](N)COC(=O)[C@@H](CCCCN)NC(=O)Cc1c(-c2ccc3ccccc3c2)[nH]c2c1ccc1ccccc12" and report it.
Completion: 90

Prompt: Look up Population Apoptotic (%) of CC(=O)Nc1cccc2c1c(Sc1ccc(Cl)cc1)c(C)n2CC(=O)O [AZD1981] and report it.
Completion: 50

###

The following molecules are shown together with reported Total Cell Count values.
system: U2OS; assay: Multiplex assay against U2OS; assay type: toxicity, cell-based; conditions: human, 24 h, 10 µM, compound concentration 10 uM, replicate 2
API note: the answer field is a bare number with no unit suffix.

Study these solved cases before continuing.
* Cl.NCCc1ccc(O)c(O)c1 [DOPAMINE HYDROCHLORIDE] | 111
* CC(C)(C)c1cc(NC(=O)Nc2ccc(-c3cn4c(n3)sc3cc(OCCN5CCOCC5)ccc34)cc2)no1 | 96
* CCCOc1ccc2[nH]cc(C3=CCNCC3)c2n1.Cl | 162
* O=C1[C@H](Cc2ccc(O)cc2)N2C(=O)CCN(C(=O)NCc3ccccc3)[C@H]2CN1Cc1cccc2ccccc12 | 91
* CN(C)C(=O)Cn1cc(-c2ccc(-c3cncc4ccccc34)cc2)cn1 | 110

Prompt: Look up Total Cell Count of "CN1CCN(c2cc(-c3ccccc3)nc(N)n2)CC1" and report it.
Completion: 166

###

test system: U2OS; experiment: Multiplex assay against U2OS; assay type: toxicity, cell-based; conditions: human, 12 h, 1 µM, compound concentration 1 uM, replicate 1
t if Population Tubulin-Different-Phenotype (%) is below 2%. f if not; exact matches included in f.

Some solved cases for reference:
- COc1ccccc1N1CCN(C[C@@H](C(=O)NC(C)(C)C)c2ccccc2)CC1.Cl.Cl: t
- N#Cc1cc(F)cc(-c2nc(-c3ccc(F)cn3)no2)c1: f
- NCCc1cn(S(=O)(=O)c2c(Cl)nc3sccn23)c2ccccc12.O=C(O)C(=O)O: f

Next item in the queue.
Prompt: I wonder whether "Cc1noc(-c2ccc(-c3ccc(CC(=O)O)cc3)cc2)c1NC(=O)O[C@H](C)c1ccccc1Cl" has Population Tubulin-Different-Phenotype (%) below 2%. Can you tell?
Completion: f

###

test system: U2OS; test: Multiplex assay against U2OS; format: toxicity, cell-based; details: human, 24 h, 10 µM, compound concentration 10 uM, replicate 1
measurement.name: Population Normal (%)
Provide the reading as a plain figure in %.

Study these solved cases before continuing.
• CC(C)(C)c1cc(NC(=O)Nc2ccc(-c3cn4c(n3)sc3cc(OCCN5CCOCC5)ccc34)cc2)no1 = 88
• CCCCC1=NC2(CCCC2)C(=O)N1Cc1ccc(-c2ccccc2-c2nnn[nH]2)cc1 = 97

Prompt: Look up Population Normal (%) of "Cc1onc(-c2ccccc2Cl)c1C(=O)N(C)c1ccc(Cl)cc1" and report it.
Completion: 96
